# protocol.notes: AUC in rat at 10 mg/kg, po
# Type: ADME, organism-based
# Set-up: dose 10 mg/kg
# setup.conditions: in vivo
readout: AUC

GET /value?item= `N#Cc1ccc(N2C3CCC2CN(C(=O)CCS(=O)(=O)c2cccc4ncsc24)C3)nc1` &field=AUC returns 21 ng·h/mL

====

# protocol.notes: Brain to plasma permeability coefficient, Kp of the compound in rat at 10 mg/kg, po measured after 2 hrs by LC-MS/MS
# Assay type: ADME, organism-based
# setup.conditions: read-out: K(p,uu,brain)
readout: Kp uu at 2 h
Please state the value as a number alone, without comment.

Documented Kp uu at 2 h of `N#Cc1ccc(N2CCN(C(=O)CCS(=O)(=O)c3cccc4ncsc34)CC2)nc1` : 0.17
